# Tested on: NCI-H2170
# methodNotes: relative viability (nuclei count vs DMSO), 5 days (fraction); higher = more cells survive
# experimentalConditions: first compound 8 µM
Under this convention, Satisfied denotes relative viability strictly below 0.8 and Not satisfied denotes relative viability at or above 0.8.

{"molecule": "O=c1[nH]c2ccccc2n1C1CCN(CCCC(c2ccc(F)cc2)c2ccc(F)cc2)CC1 [Pimozide] + CS(=O)(=O)N1CCN(Cc2cc3nc(-c4cccc5[nH]ncc45)nc(N4CCOCC4)c3s2)CC1 [Pictilisib] (partner 1 µM)", "systemName": "NCI-H2170", "category": "Satisfied"}
{"molecule": "O=c1[nH]c2ccccc2n1C1CCN(CCCC(c2ccc(F)cc2)c2ccc(F)cc2)CC1 [Pimozide] + CS(=O)(=O)CCNCc1ccc(-c2ccc3ncnc(Nc4ccc(OCc5cccc(F)c5)c(Cl)c4)c3c2)o1 [Lapatinib] (partner 2 µM)", "systemName": "NCI-H2170", "category": "Satisfied"}
{"molecule": "O=c1[nH]c2ccccc2n1C1CCN(CCCC(c2ccc(F)cc2)c2ccc(F)cc2)CC1 [Pimozide] + C[C@@H](Oc1cc(-c2cnn(C3CCNCC3)c2)cnc1N)c1c(Cl)ccc(F)c1Cl [Crizotinib] (partner 1 µM)", "systemName": "NCI-H2170", "category": "Not satisfied"}
{"molecule": "O=c1[nH]c2ccccc2n1C1CCN(CCCC(c2ccc(F)cc2)c2ccc(F)cc2)CC1 [Pimozide] + O=C(CCCCCCC(=O)Nc1ccccc1)NO [Vorinostat] (partner 1 µM)", "systemName": "NCI-H2170", "category": "Satisfied"}
{"molecule": "O=c1[nH]c2ccccc2n1C1CCN(CCCC(c2ccc(F)cc2)c2ccc(F)cc2)CC1 [Pimozide] + COc1cc2c(Oc3ccc(NC(=O)C4(C(=O)Nc5ccc(F)cc5)CC4)cc3F)ccnc2cc1OCCCN1CCOCC1 [Foretinib] (partner 0.25 µM)", "systemName": "NCI-H2170", "category": "Not satisfied"}
{"molecule": "O=c1[nH]c2ccccc2n1C1CCN(CCCC(c2ccc(F)cc2)c2ccc(F)cc2)CC1 [Pimozide] + O=C(c1cc(Cc2n[nH]c(=O)c3ccccc23)ccc1F)N1CCN(C(=O)C2CC2)CC1 [Olaparib] (partner 8 µM)", "systemName": "NCI-H2170", "category": "Satisfied"}

---

# Test system: NCI-H358
# methodNotes: relative viability (nuclei count vs DMSO), 5 days (fraction); higher = more cells survive
# experimentalConditions: first compound 0.01581 µM

{"compound": "COc1cc2nccc(Oc3ccc(NC(=O)Nc4cc(C)on4)c(Cl)c3)c2cc1OC [Tivozanib] + O=C(c1cc(Cc2n[nH]c(=O)c3ccccc23)ccc1F)N1CCN(C(=O)C2CC2)CC1 [Olaparib] (partner 8 µM)", "systemName": "NCI-H358", "relative viability": 0.612}
{"compound": "COc1cc2nccc(Oc3ccc(NC(=O)Nc4cc(C)on4)c(Cl)c3)c2cc1OC [Tivozanib] + CS(=O)(=O)CCNCc1ccc(-c2ccc3ncnc(Nc4ccc(OCc5cccc(F)c5)c(Cl)c4)c3c2)o1 [Lapatinib] (partner 2 µM)", "systemName": "NCI-H358", "relative viability": 0.563}
{"compound": "Nc1ccn([C@@H]2O[C@H](CO)[C@@H](O)[C@@H]2O)c(=O)n1 [Cytarabine] + Nc1ncn([C@H]2C[C@H](O)[C@@H](CO)O2)c(=O)n1 [Decitabine] (partner 2 µM)", "systemName": "NCI-H358", "relative viability": 0.205}

---

# Tested on: NCI-H2009
# methodNotes: relative viability (nuclei count vs DMSO), 5 days (fraction); higher = more cells survive
# experimentalConditions: first compound 158.11 µM
reportedMetric: relative viability

{"compound": "O=C(O)CCCCC(CCSCc1ccccc1)SCc1ccccc1 (stereo not drawn) [CPI-613] + O=C(CCCCCCC(=O)Nc1ccccc1)NO [Vorinostat] (partner 1 µM)", "experimentalValue": 0.152}
{"compound": "O=C(O)CCCCC(CCSCc1ccccc1)SCc1ccccc1 (stereo not drawn) [CPI-613] + CS(=O)(=O)CCNCc1ccc(-c2ccc3ncnc(Nc4ccc(OCc5cccc(F)c5)c(Cl)c4)c3c2)o1 [Lapatinib] (partner 2 µM)", "experimentalValue": 0.18}
{"compound": "O=C(O)CCCCC(CCSCc1ccccc1)SCc1ccccc1 (stereo not drawn) [CPI-613] + N=C(N)NC(=N)NCCc1ccccc1 [Phenformin] (partner 250 µM)", "experimentalValue": 0.0548}

---

# System: LXF-289
# methodNotes: relative viability (nuclei count vs DMSO), 5 days (fraction); higher = more cells survive
# experimentalConditions: first compound 0.5 µM

{"compound": "Nc1ccn([C@@H]2O[C@H](CO)[C@@H](O)[C@@H]2O)c(=O)n1 [Cytarabine] + NC(=O)Nc1cc(-c2cccc(F)c2)sc1C(=O)N[C@H]1CCCNC1 [AZD7762] (partner 0.2 µM)", "systemName": "LXF-289", "relative viability": 0.0877}
{"compound": "COc1cc2nccc(Oc3ccc(NC(=O)Nc4cc(C)on4)c(Cl)c3)c2cc1OC [Tivozanib] + CC(=O)Nc1cccc(-n2c(=O)n(C3CC3)c(=O)c3c(Nc4ccc(I)cc4F)n(C)c(=O)c(C)c32)c1 [Trametinib] (partner 0.02 µM)", "systemName": "LXF-289", "relative viability": 0.668}
{"compound": "Nc1ccn([C@@H]2O[C@H](CO)[C@@H](O)[C@@H]2O)c(=O)n1 [Cytarabine] + Nc1ncn([C@H]2C[C@H](O)[C@@H](CO)O2)c(=O)n1 [Decitabine] (partner 2 µM)", "systemName": "LXF-289", "relative viability": 0.197}
{"compound": "Nc1ccn([C@@H]2O[C@H](CO)[C@@H](O)[C@@H]2O)c(=O)n1 [Cytarabine] + CS(=O)(=O)N1CCN(Cc2cc3nc(-c4cccc5[nH]ncc45)nc(N4CCOCC4)c3s2)CC1 [Pictilisib] (partner 1 µM)", "systemName": "LXF-289", "relative viability": 0.304}
{"compound": "COc1cc2nccc(Oc3ccc(NC(=O)Nc4cc(C)on4)c(Cl)c3)c2cc1OC [Tivozanib] + CS(=O)(=O)N1CCN(Cc2cc3nc(-c4cccc5[nH]ncc45)nc(N4CCOCC4)c3s2)CC1 [Pictilisib] (partner 1 µM)", "systemName": "LXF-289", "relative viability": 0.807}

---

Known relative viability of a selection of compounds
# Tested on: NCI-H2023
# methodNotes: relative viability (nuclei count vs DMSO), 5 days (fraction); higher = more cells survive
# experimentalConditions: first compound 0.002 µM

{"compound": "CC(=O)O[C@@]12CO[C@@H]1C[C@H](O)[C@@]1(C)C(=O)[C@H](O)C3=C(C)[C@@H](OC(=O)[C@H](O)[C@@H](NC(=O)OC(C)(C)C)c4ccccc4)C[C@@](O)([C@@H](OC(=O)c4ccccc4)[C@H]21)C3(C)C [Docetaxel] + Cc1nc(NC(=O)N2CCC[C@H]2C(N)=O)sc1-c1ccnc(C(C)(C)C(F)(F)F)c1 [Alpelisib] (partner 2 µM)", "relative viability": 0.128}
{"compound": "CC(=O)O[C@@]12CO[C@@H]1C[C@H](O)[C@@]1(C)C(=O)[C@H](O)C3=C(C)[C@@H](OC(=O)[C@H](O)[C@@H](NC(=O)OC(C)(C)C)c4ccccc4)C[C@@](O)([C@@H](OC(=O)c4ccccc4)[C@H]21)C3(C)C [Docetaxel] + COc1cccc2cc(-c3nc([C@H]4CC[C@H](C(=O)O)CC4)n4ncnc(N)c34)[nH]c12 [OSI-027] (partner 0.5 µM)", "relative viability": 0.131}
{"compound": "CC(=O)O[C@@]12CO[C@@H]1C[C@H](O)[C@@]1(C)C(=O)[C@H](O)C3=C(C)[C@@H](OC(=O)[C@H](O)[C@@H](NC(=O)OC(C)(C)C)c4ccccc4)C[C@@](O)([C@@H](OC(=O)c4ccccc4)[C@H]21)C3(C)C [Docetaxel] + COc1cc2c(Oc3ccc(NC(=O)C4(C(=O)Nc5ccc(F)cc5)CC4)cc3F)ccnc2cc1OCCCN1CCOCC1 [Foretinib] (partner 0.25 µM)", "relative viability": 0.111}

---

# System: NCI-H441
# methodNotes: relative viability (nuclei count vs DMSO), 5 days (fraction); higher = more cells survive
# experimentalConditions: first compound 0.000632 µM
Measured relative viability values are reported for all entries that follow.

{"compound": "CC(=O)O[C@@]12CO[C@@H]1C[C@H](O)[C@@]1(C)C(=O)[C@H](O)C3=C(C)[C@@H](OC(=O)[C@H](O)[C@@H](NC(=O)OC(C)(C)C)c4ccccc4)C[C@@](O)([C@@H](OC(=O)c4ccccc4)[C@H]21)C3(C)C [Docetaxel] + CCNC(=O)c1noc(-c2cc(C(C)C)c(O)cc2O)c1-c1ccc(CN2CCOCC2)cc1 [Luminespib] (partner 0.01 µM)", "relative viability": 0.288}
{"compound": "CC(=O)O[C@@]12CO[C@@H]1C[C@H](O)[C@@]1(C)C(=O)[C@H](O)C3=C(C)[C@@H](OC(=O)[C@H](O)[C@@H](NC(=O)OC(C)(C)C)c4ccccc4)C[C@@](O)([C@@H](OC(=O)c4ccccc4)[C@H]21)C3(C)C [Docetaxel] + NC(=O)Nc1cc(-c2cccc(F)c2)sc1C(=O)N[C@H]1CCCNC1 [AZD7762] (partner 0.2 µM)", "relative viability": 1.15}
{"compound": "CC(=O)O[C@@]12CO[C@@H]1C[C@H](O)[C@@]1(C)C(=O)[C@H](O)C3=C(C)[C@@H](OC(=O)[C@H](O)[C@@H](NC(=O)OC(C)(C)C)c4ccccc4)C[C@@](O)([C@@H](OC(=O)c4ccccc4)[C@H]21)C3(C)C [Docetaxel] + C[C@@H](Oc1cc(-c2cnn(C3CCNCC3)c2)cnc1N)c1c(Cl)ccc(F)c1Cl [Crizotinib] (partner 1 µM)", "relative viability": 0.472}
{"compound": "CC(=O)O[C@@]12CO[C@@H]1C[C@H](O)[C@@]1(C)C(=O)[C@H](O)C3=C(C)[C@@H](OC(=O)[C@H](O)[C@@H](NC(=O)OC(C)(C)C)c4ccccc4)C[C@@](O)([C@@H](OC(=O)c4ccccc4)[C@H]21)C3(C)C [Docetaxel] + CC1(C)CCC(c2ccc(Cl)cc2)=C(CN2CCN(c3ccc(C(=O)NS(=O)(=O)c4ccc(N[C@H](CCN5CCOCC5)CSc5ccccc5)c(S(=O)(=O)C(F)(F)F)c4)cc3)CC2)C1 [Navitoclax] (partner 0.5 µM)", "relative viability": 0.275}
{"compound": "CC(=O)O[C@@]12CO[C@@H]1C[C@H](O)[C@@]1(C)C(=O)[C@H](O)C3=C(C)[C@@H](OC(=O)[C@H](O)[C@@H](NC(=O)OC(C)(C)C)c4ccccc4)C[C@@](O)([C@@H](OC(=O)c4ccccc4)[C@H]21)C3(C)C [Docetaxel] + CC(C)C[C@H](NC(=O)[C@H](Cc1ccccc1)NC(=O)c1cnccn1)B(O)O [Bortezomib] (partner 0.002 µM)", "relative viability": 0.276}

Source listed as the supplement of paper PMC10307832.
